Listed here: items and their measured EC50.
target.or.system: Gp120 (HIV)
run.description: ELISA
Give the value in µg/mL but do not write µg/mL after it.

Example results:
Task: Could you please provide reported EC50 for NK 2K (other, 2,000 MW PEG coupled by NHS ester to a primary amine. The intended site is the added N-terminal Lys, pos 2, written K; the N-terminal amine is also possible. At least one PEG per dimer. The exact site and number of PEGs are not determined.) MKSLTHRRFGGSGGSPFSGLSSIAVRSGSYLDAIIIDGVHHGGSGGNLSPTFTFGSGEYISNMTIRSGDYIDNISFETNQGRRFGPYGGSGGSANTLSNVRVIQINGSAGDYLDSLDIYYEQY ? Thanks!
Output: 0.0608

Task: Note EC50 for the binder shown: M78K 20K (other, chain 1 pos 79: Lys carrying 20,000 MW PEG by NHS-ester amine coupling, written K. It is the only lysine in the chain. At least one PEG per dimer. The exact site and occupancy were not measured.) MSLTHRRFGGSGGSPFSGLSSIAVRSGSYLDAIIIDGVHHGGSGGNLSPTFTFGSGEYISNMTIRSGDYIDNISFETNKGRRFGPYGGSGGSANTLSNVRVIQINGSAGDYLDSLDIYYEQY
Output: 0.304

Task: Please look at this binder and report its EC50: M78K 2K (other, chain 1 pos 79: Lys carrying 2,000 MW PEG by NHS-ester amine coupling, written K. It is the only lysine in the chain. At least one PEG per dimer. The exact site and occupancy were not measured.) MSLTHRRFGGSGGSPFSGLSSIAVRSGSYLDAIIIDGVHHGGSGGNLSPTFTFGSGEYISNMTIRSGDYIDNISFETNKGRRFGPYGGSGGSANTLSNVRVIQINGSAGDYLDSLDIYYEQY
Output: 0.0338

Task: For Q (other) MSLTHRKFGGSGGSPFSGLSSIAVRSGSYLDAIIIDGVHHGGSGGNLSPTFTFGSGEYISNMTIRSGDYIDNISFETNQGRRFGPYGGSGGSANTLSNVKVIQINGSAGDYLDSLDIYYEQY , write its EC50.
Output: 0.00838

Task: Kindly indicate its recorded EC50. Item: CK 20K (other, 20,000 MW PEG coupled by NHS ester to a primary amine. The intended site is the added C-terminal Lys, pos 123, written K. At least one PEG per dimer. The exact site and number of PEGs are not determined.) MSLTHRRFGGSGGSPFSGLSSIAVRSGSYLDAIIIDGVHHGGSGGNLSPTFTFGSGEYISNMTIRSGDYIDNISFETNQGRRFGPYGGSGGSANTLSNVRVIQINGSAGDYLDSLDIYYEQYK
Output: 0.0905

Others:
Task: Give the reported EC50 for this binder. CK (other) MSLTHRRFGGSGGSPFSGLSSIAVRSGSYLDAIIIDGVHHGGSGGNLSPTFTFGSGEYISNMTIRSGDYIDNISFETNQGRRFGPYGGSGGSANTLSNVRVIQINGSAGDYLDSLDIYYEQYK
Output: 0.0105

Task: Name the recorded EC50 of the item M78K (other) MSLTHRRFGGSGGSPFSGLSSIAVRSGSYLDAIIIDGVHHGGSGGNLSPTFTFGSGEYISNMTIRSGDYIDNISFETNKGRRFGPYGGSGGSANTLSNVRVIQINGSAGDYLDSLDIYYEQY in your answer.
Output: 0.0111

Task: Identify measured EC50 corresponding to Q 20K (other, 20,000 MW PEG coupled by NHS ester to a primary amine. The candidate sites are Lys pos 7 and Lys pos 100, both written K. At least one PEG per dimer. The exact site and number of PEGs are not determined.) MSLTHRKFGGSGGSPFSGLSSIAVRSGSYLDAIIIDGVHHGGSGGNLSPTFTFGSGEYISNMTIRSGDYIDNISFETNQGRRFGPYGGSGGSANTLSNVKVIQINGSAGDYLDSLDIYYEQY
Output: 0.0336

Task: Using the record for NK (other) MKSLTHRRFGGSGGSPFSGLSSIAVRSGSYLDAIIIDGVHHGGSGGNLSPTFTFGSGEYISNMTIRSGDYIDNISFETNQGRRFGPYGGSGGSANTLSNVRVIQINGSAGDYLDSLDIYYEQY , state its measured EC50.
Output: 0.015

The measured values listed here are drawn from patent US20220289798A1.
